- Tested on: U-2940
- MEASUREMENT DESCRIPTION: Viability test on U-2940 cells, 48 h
- Type: cell-based, human
- CONDITION: Homo sapiens, U-2940, 48 h, 48 h incubation; nd = no significant cytotoxic activity up to 100 μM
pIC50: −log10 of the molar value.
Everything with pIC50 lower than 5 is 0.0; everything else, including exactly 5, is 1.0.

COc1ccccc1C(=O)/C=C/c1ccc2ccccc2c1    1.0
CCOc1ccccc1C(=O)/C=C/c1ccc2cc(OC)ccc2c1    0.0
CCOc1ccc(C(=O)/C=C/c2ccc3[nH]ccc3c2)cc1    0.0

# check: pIC50 of `CCOc1ccccc1C(=O)/C=C/c1ccc2ccccc2c1` is greater than or equal to 5
1.0

Also `CCOc1cccc(C(=O)/C=C/c2cc3ccccc3o2)c1` , if possible.
0.0
